# assay method text: NCI Yeast Anticancer Drug Screen. Data for the bub3 strain (AID 167)
# measurement setup: S. cerevisiae bub3 mutant strain, at 5.0 µM (retest, dose inferred, filed as 0.5), active compounds read high
Compounds without any hit were thinned out: in the full panel of roughly 79,000, 15% have a hit.
Task for the reader: assign each of the following compounds its reported growth inhibition.
Numbers only, in %.

Below are some compounds; for each one, tell me its growth inhibition.
1. COC(=O)C1=C(C)NC(C)=C(C(=O)OC)C1c1ccc(NCc2ccccc2)c([N+](=O)[O-])c1
2. CC1=CC2N(C=C1)C(c1ccccc1)=NON2c1cc(C)ccn1 (stereo unspecified)
3. CCc1cccc(CC)c1Nc1nc2c(s1)C(=O)c1ccccc1C2=O
4. Cc1ccc(Oc2ccc(C(=O)C(CN(C)C)CN(C)C)cc2)cc1
5. O=C(CC(=O)c1ccccc1)CC(=O)c1ccccc1Br
6. Cc1cc(S(=O)(=O)c2ccc(Cl)cc2)nc(S(=O)(=O)c2ccc(Cl)cc2)c1C#N

1: 1; 2: -44; 3: 100; 4: 91; 5: -1; 6: 99

Where do these numbers come from? They come from PubChem BioAssay (NCI).
